Assay: Plasma concentration versus time of Compound I and metabolite Compound III in patients dosed QD or BID with Form B of Compound II plus fulvestrant
Assay type: in vivo, human
Details: human, plasma, oral, 100 mg, 100 mg BID of Form B, Day 1, 0.0 h, Median; read-out: Compound III Concentration
measurement-name: concentration at 0 h (ng/mL)
Numbers only, in ng/mL.

Looking up O=C1NCC2(CCCCC2)n2c1cc1cnc(Nc3ccc(N4CCNCC4)cn3)nc12 , I found its concentration at 0 h recorded as 0

* * *

Assay: Plasma concentration versus time of Compound I and metabolite Compound III in patients dosed QD or BID with Form B of Compound II plus fulvestrant
Format: in vivo, human
Conditions: human, plasma, oral, 650 mg, Cohort 5, 650 mg QD of Form B, Day 29, 2.0 h; read-out: Compound I Concentration, Mean
measurement-name: concentration at 2 h
In your response, the unit should come after the numeric value.

Record CC(C)N1CCN(c2ccc(Nc3ncc4cc5n(c4n3)C3(CCCCC3)CNC5=O)nc2)CC1 [Compound I] , field concentration at 2 h: 25.9 ng/mL

* * *

Assay: Noncompartmental pharmacokinetic parameters (Cmax, Tmax, AUC, Racc) in QD and BID cohorts of Form B
Format: in vivo, human
Conditions: human, plasma, oral, 150 mg, Compound I; 150 mg BID of Form B; Cohort 7; Day 1; read-out: Tmax (Mean)
measurement-name: Tmax
Please report the result as a number followed by the unit.

For this compound ( CC(C)N1CCN(c2ccc(Nc3ncc4cc5n(c4n3)C3(CCCCC3)CNC5=O)nc2)CC1 [Compound I] ), measured Tmax is 3.67 h

* * *

Assay: Noncompartmental pharmacokinetic parameters (Cmax, Tmax, AUC, Racc) in QD and BID cohorts of Form B
Assay type: in vivo, human
Details: human, plasma, oral, 200 mg, Compound III; 200 mg BID of Form B; Cohort 8; Day 1; read-out: Cmax (Mean)
measurement-name: Cmax
Hi, when you answer, please include the unit after the number. Thanks!

The measured Cmax associated with O=C1NCC2(CCCCC2)n2c1cc1cnc(Nc3ccc(N4CCNCC4)cn3)nc12 [Compound III] reads 2.87 ng/mL

* * *

Experiment: Noncompartmental pharmacokinetic parameters (Cmax, Tmax, AUC, Racc) in QD and BID cohorts of Form B
Type: in vivo, human
Conditions: human, plasma, oral, 500 mg, Cohort 4, 500 mg QD of Form B, Day 1; read-out: Tmax, Mean
measurement-name: Tmax (h)
Numbers only, in h.

For reference, reported Tmax for CC(C)N1CCN(c2ccc(Nc3ncc4cc5n(c4n3)C3(CCCCC3)CNC5=O)nc2)CC1 stands at 5.75

* * *

Test: Plasma concentration versus time of Compound I and metabolite Compound III in patients dosed QD or BID with Form B of Compound II plus fulvestrant
Assay type: in vivo, human
Settings: human, plasma, oral, 650 mg, 650 mg QD of Form B, Day 1, 10.0 h, Median; read-out: Compound I Concentration
measurement-name: concentration at 10 h

Item: CC(C)N1CCN(c2ccc(Nc3ncc4cc5n(c4n3)C3(CCCCC3)CNC5=O)nc2)CC1 | concentration at 10 h: 47.9 ng/mL

* * *

Assay: Plasma concentration versus time of Compound I and metabolite Compound III in patients dosed QD or BID with Form B of Compound II plus fulvestrant
Assay type: in vivo, human
Settings: human, plasma, oral, 400 mg, 400 mg QD of Form B, Day 1, 0.0 h, Mean; read-out: Compound I Concentration
measurement-name: concentration at 0 h (ng/mL)
One number for each entry, in ng/mL.

Notebook: CC(C)N1CCN(c2ccc(Nc3ncc4cc5n(c4n3)C3(CCCCC3)CNC5=O)nc2)CC1 [Compound I] , concentration at 0 h read as 0

* * *

Assay: Plasma concentration versus time of Compound I and metabolite Compound III in patients dosed QD or BID with Form B of Compound II plus fulvestrant
Type: in vivo, human
Conditions: human, plasma, oral, 650 mg, Cohort 5, 650 mg QD of Form B, Day 8; read-out: Trough Compound I Concentration, Min
measurement-name: concentration at 8 day (ng/mL)
Give bare numbers, in ng/mL.

Short answer for CC(C)N1CCN(c2ccc(Nc3ncc4cc5n(c4n3)C3(CCCCC3)CNC5=O)nc2)CC1 : concentration at 8 day was 17

* * *

Assay: Plasma concentration versus time of Compound I and metabolite Compound III in patients dosed QD or BID with Form B of Compound II plus fulvestrant
Type: in vivo, human
Settings: human, plasma, oral, 100 mg, 100 mg BID of Form B, Day 1, 12.0 h, Mean; read-out: Compound III Concentration
measurement-name: concentration at 12 h (ng/mL)
Answers are plain numbers, in ng/mL.

The compound O=C1NCC2(CCCCC2)n2c1cc1cnc(Nc3ccc(N4CCNCC4)cn3)nc12 showed concentration at 12 h equal to 0.0917

* * *

Experiment: Plasma concentration versus time of Compound I and metabolite Compound III in patients dosed QD or BID with Form B of Compound II plus fulvestrant
Assay type: in vivo, human
Conditions: human, plasma, oral, 200 mg, Cohort 8, 200 mg BID of Form B, Day 29, 6.0 h; read-out: Compound I Concentration, Min
Source text: Patients were enrolled into 1 of 2 parallel, independently operating, dose-escalation dosing cohorts with Form B of Compound II administered continuously either once daily (QD) or twice daily (BID) with food with fixed-dose fulvestrant (intramuscularly every 14 days for the first three injections and then every 28 days). Pre- or perimenopausal patients also received goserelin for the duration of study treatment. […]
measurement-name: concentration at 6 h (ng/mL)
Answers are plain numbers, in ng/mL.

concentration at 6 h reading for CC(C)N1CCN(c2ccc(Nc3ncc4cc5n(c4n3)C3(CCCCC3)CNC5=O)nc2)CC1 [Compound I] : 7.6

* * *

Assay: Plasma concentration versus time of Compound I and metabolite Compound III in patients dosed QD or BID with Form B of Compound II plus fulvestrant
Format: in vivo, human
Details: human, plasma, oral, 650 mg, Cohort 5, 650 mg QD of Form B, Day 29, 12.0 h; read-out: Compound I Concentration, Mean
measurement-name: concentration at 12 h (ng/mL)
Answers are plain numbers, in ng/mL.

Lab note: measured concentration at 12 h of CC(C)N1CCN(c2ccc(Nc3ncc4cc5n(c4n3)C3(CCCCC3)CNC5=O)nc2)CC1 [Compound I] was 46.3

* * *

Experiment: Plasma concentration versus time of Compound I and metabolite Compound III in patients dosed QD or BID with Form B of Compound II plus fulvestrant
Assay type: in vivo, human
Conditions: human, plasma, oral, 650 mg, 650 mg QD of Form B, Day 1, 10.0 h, Mean; read-out: Compound I Concentration
measurement-name: concentration at 10 h (ng/mL)
Numbers only, in ng/mL.

Memo: CC(C)N1CCN(c2ccc(Nc3ncc4cc5n(c4n3)C3(CCCCC3)CNC5=O)nc2)CC1 , reported concentration at 10 h: 48.4

* * *

Assay: Plasma concentration versus time of Compound I and metabolite Compound III in patients dosed QD or BID with Form B of Compound II plus fulvestrant
Assay type: in vivo, human
Conditions: human, plasma, oral, 500 mg, Cohort 4, 500 mg QD of Form B, Day 29, 10.0 h; read-out: Compound III Concentration, Mean
measurement-name: concentration at 10 h (ng/mL)
Give bare numbers, in ng/mL.

Record O=C1NCC2(CCCCC2)n2c1cc1cnc(Nc3ccc(N4CCNCC4)cn3)nc12 [Compound III] . Reported concentration at 10 h: 2.66

* * *

Experiment: Plasma concentration versus time of Compound I and metabolite Compound III in patients dosed QD or BID with Form B of Compound II plus fulvestrant
Assay type: in vivo, human
Details: human, plasma, oral, 650 mg, Cohort 5, 650 mg QD of Form B, Day 29, 3.0 h; read-out: Compound I Concentration, Mean
measurement-name: concentration at 3 h (ng/mL)
Numbers only, in ng/mL.

Entry under test: CC(C)N1CCN(c2ccc(Nc3ncc4cc5n(c4n3)C3(CCCCC3)CNC5=O)nc2)CC1 . Its concentration at 3 h was 28.4

* * *

Experiment: Plasma concentration versus time of Compound I and metabolite Compound III in patients dosed QD or BID with Form B of Compound II plus fulvestrant
Type: in vivo, human
Settings: human, plasma, oral, 650 mg, 650 mg QD of Form B, Day 1, 10.0 h, Mean; read-out: Compound III Concentration
measurement-name: concentration at 10 h (ng/mL)
Numbers only, in ng/mL.

For O=C1NCC2(CCCCC2)n2c1cc1cnc(Nc3ccc(N4CCNCC4)cn3)nc12 the molecule record lists concentration at 10 h as 6.63

* * *

Assay: Pharmacokinetics of Compound I in healthy volunteers after a single dose of Form B of Compound II
Assay type: in vivo, human
Settings: human, blood, oral, single 200 mg dose of Form B of Compound II
Description: Table 84 provides the pharmacokinetic parameters of Compound I upon administration of a single dose of Form B of Compound II (48, 100, 200, 300, 400, or 600 mg) in healthy volunteers. Blood samples for analysis of Compound I were collected pre-dose and 0.25, 0.5, 1, 1.5, 2, 3, 4, 6, 8, 12, 24, 36, 48, 72, and 96 hours post-dose.
measurement-name: AUC(0-inf) (ng·h/mL)
Numbers only, in ng·h/mL.

// recorded AUC(0-inf) for CC(C)N1CCN(c2ccc(Nc3ncc4cc5n(c4n3)C3(CCCCC3)CNC5=O)nc2)CC1 [Compound I] : 275
